Species: Rattus norvegicus
Test: DrugMatrix - Regimen: Daily Repeat
Format: toxicity, organism-based, Sprague-Dawley
Set-up: regimen Daily Repeat, gender Male, age 6-8 weeks
Conditions: in vivo, po, […], 72 h, tissue Blood, route oral GAVAGE, dose 7.5 mg/Kg, dose level High, time 3 day, vehicle 100 % SALINE
quantity-kind: ABSOLUTE BASOPHIL (cells/µL)
Answer format: numeric, cells/µL implied, no suffix.

Query string: Give me measured ABSOLUTE BASOPHIL, please, for this molecule: `Nc1ncnc2c1ncn2[C@@H]1O[C@H](CO)[C@@H](O)[C@H]1F`
Result string: 280

###

Species on record: Rattus norvegicus
Test: DrugMatrix - Regimen: Daily Repeat
Format: toxicity, organism-based, Sprague-Dawley
Parameters: regimen Daily Repeat, gender Male, age 6-8 weeks
Conditions: in vivo, po, 2000 mg/kg, 120 h, tissue Plasma, route oral GAVAGE, dose level High, time 5 day, vehicle .5 % CMC
Response field label takes True when CREATINE PHOSPHOKINASE is strictly below 500 u/L and False in all other cases.

Study these solved cases before continuing.
O=C1Nc2ccc(Cl)cc2C(c2ccccc2Cl)=NC1O (stereo unspecified) :: False
COc1cc2nc(N3CCN(C(=O)c4ccco4)CC3)nc(N)c2cc1OC :: False

Note: attention shifts to another entry.
Query string: Determine whether this compound shows CREATINE PHOSPHOKINASE lower than 500 u/L (ties excluded): `CC1(C)S[C@@H]2[C@H](NC(=O)[C@H](N)c3ccccc3)C(=O)N2[C@H]1C(=O)O`
Result string: True

###

Species on record: Rattus norvegicus
Assay: DrugMatrix - Regimen: Daily Repeat
Type: toxicity, organism-based, Sprague-Dawley
Design: regimen Daily Repeat, gender Male, age 6-8 weeks
Conditions: in vivo, po, 50 mg/kg, 120 h, tissue Plasma, route oral GAVAGE, dose level Low, time 5 day, vehicle .5 % CMC
quantity-kind: POTASSIUM

Use the examples below as a reference point.
CCN1CCC[C@H]1CNC(=O)c1cc(S(N)(=O)=O)ccc1OC [LEVOSULPIRIDE] :: 6.83 MEQ/L
NC1CCN(c2nc3c(cc2F)c(=O)c(C(=O)O)cn3-c2ccc(F)cc2F)C1 (centres undefined) :: 6.4 MEQ/L
CN(C)[C@@H]1C(O)=C(C(N)=O)C(=O)[C@@]2(O)C(O)=C3C(=O)c4c(O)ccc(Cl)c4[C@@](C)(O)[C@H]3C[C@@H]12 :: 6.97 MEQ/L

Let's switch to this compound now.
Query string: Quote POTASSIUM reported for Cc1cccc(C)c1OCC(C)N (centres undefined) please.
Result string: 6.24 MEQ/L

###

Species on record: Rattus norvegicus
Assay: DrugMatrix - Regimen: Daily Repeat
Type: toxicity, organism-based, Sprague-Dawley
Design: regimen Daily Repeat, gender Male, age 6-8 weeks
Settings: in vivo, po, 0 mg/kg, 120 h, tissue Blood, route oral GAVAGE, dose level Control, time 5 day, vehicle .5 % CMC
Quick reference for EOSINOPHIL among some molecules
Answer format: numeric, % implied, no suffix.

COc1ccc(C2C(=O)c3ccccc3C2=O)cc1 :: 0.17

Query string: Quote EOSINOPHIL reported for `COc1cc2nc(N3CCN(C(=O)c4ccco4)CC3)nc(N)c2cc1OC` please.
Result string: 0.33

Query string: Name the recorded EOSINOPHIL of the item `CN(C/C=C/C#CC(C)(C)C)Cc1cccc2ccccc12` in your answer.
Result string: 0.4

Query string: Report measured EOSINOPHIL; entry is `CC(=O)Oc1ccc(C(c2ccc(OC(C)=O)cc2)c2ccccn2)cc1`
Result string: 0

Query string: // Input: `COc1ccc2c3c1O[C@H]1C[C@@H](O)C=C[C@@]31CCN(C)C2` . Output its EOSINOPHIL only.
Result string: 0.17

###

Organism: Rattus norvegicus
Test: DrugMatrix - Regimen: Daily Repeat
Assay type: toxicity, organism-based, Sprague-Dawley
Set-up: regimen Daily Repeat, gender Male, age 6-8 weeks
Details: in vivo, po, 89 mg/kg, 120 h, tissue Blood, route oral GAVAGE, dose level High, time 5 day, vehicle .5 % CMC
quantity-kind: ABSOLUTE BASOPHIL (cells/µL)
Supply the numeric figure in cells/µL, leaving out any unit text.

Query string: Identify ABSOLUTE BASOPHIL associated with the compound CC(C(=O)O)c1ccc2oc(-c3ccc(Cl)cc3)nc2c1 (stereo unspecified)
Result string: 80

###

Let's look at some compounds and their measured URIC ACID.
Species: Rattus norvegicus
Experiment: DrugMatrix - Regimen: Daily Repeat
Format: toxicity, organism-based, Sprague-Dawley
Design: regimen Daily Repeat, gender Male, age 6-8 weeks
Details: in vivo, po, 0 mg/kg, 72 h, tissue Plasma, route oral GAVAGE, dose level Control, time 3 day, […]
Give a bare numeral; the unit mg/dL is implied.

Recorded URIC ACID, per entry:
COc1cc(N)c(Cl)cc1C(=O)NC1CCN(CCCOc2ccc(F)cc2)CC1OC (centres undefined) [CISAPRIDE] :: 0.8
CO[C@H]1/C=C/O[C@@]2(C)Oc3c(C)c(O)c4c(O)c(c(/C=N/N5CCN(C6CCCC6)CC5)c(O)c4c3C2=O)NC(=O)/C(C)=C\C=C\[C@H](C)[C@H](O)[C@@H](C)[C@@H](O)[C@@H](C)[C@H](OC(C)=O)[C@@H]1C :: 1.55
CC(C)(C)NC(=O)[C@H]1CC[C@H]2[C@@H]3CC[C@H]4NC(=O)C=C[C@]4(C)[C@H]3CC[C@]12C [FINASTERIDE] :: 0.93

Query string: Supply measured URIC ACID of Clc1ccc(COC(Cn2ccnc2)c2ccc(Cl)cc2Cl)cc1 (centres undefined) in your reply.
Result string: 0.67

###

LYMPHOCYTE overview
Organism: Rattus norvegicus
Experiment: DrugMatrix - Regimen: Daily Repeat
Type: toxicity, organism-based, Sprague-Dawley
Parameters: regimen Daily Repeat, gender Male, age 6-8 weeks
Conditions: in vivo, po, 0 mg/kg, 72 h, tissue Blood, route oral GAVAGE, dose level Control, time 3 day, […]
Respond numerically; units are % and should not be typed.

Look over these answered cases.
CC(C)(C)NC(=O)[C@H]1CC[C@H]2[C@@H]3CC[C@H]4NC(=O)C=C[C@]4(C)[C@H]3CC[C@]12C [FINASTERIDE] :: 87
Clc1ccc(COC(Cn2ccnc2)c2ccc(Cl)cc2Cl)cc1 (centres undefined) :: 86.33
COc1cc(N)c(Cl)cc1C(=O)NC1CCN(CCCOc2ccc(F)cc2)CC1OC (centres undefined) [CISAPRIDE] :: 94.67

Now look at this one.
Query string: Read the entry `CO[C@H]1/C=C/O[C@@]2(C)Oc3c(C)c(O)c4c(O)c(c(/C=N/N5CCN(C6CCCC6)CC5)c(O)c4c3C2=O)NC(=O)/C(C)=C\C=C\[C@H](C)[C@H](O)[C@@H](C)[C@@H](O)[C@@H](C)[C@H](OC(C)=O)[C@@H]1C` and write its reported LYMPHOCYTE.
Result string: 89.5

###

Species on record: Rattus norvegicus
Experiment: DrugMatrix - Regimen: Daily Repeat
Format: toxicity, organism-based, Sprague-Dawley
Design: regimen Daily Repeat, gender Male, age 6-8 weeks
Conditions: in vivo, po, 0 mg/kg, 120 h, tissue Blood, route oral GAVAGE, dose level Control, time 5 day, vehicle .5 % CMC
Measured LYMPHOCYTE accompanies every entry in the list below.
Give a bare numeral; the unit % is implied.

CNCCC(Oc1ccc(C(F)(F)F)cc1)c1ccccc1 (stereo not given) [FLUOXETINE] :: 83.33

Query string: Give reported LYMPHOCYTE value for CC(C(=O)O)c1ccc2oc(-c3ccc(Cl)cc3)nc2c1 (stereo not given) [BENOXAPROFEN]
Result string: 79.92

Query string: Indicate its recorded LYMPHOCYTE; the compound in question is COc1ccc(C2C(=O)c3ccccc3C2=O)cc1 [ANISINDIONE]
Result string: 87.17

Query string: Please supply the value of reported LYMPHOCYTE for the item C[C@H]1O[C@@H](n2cc(F)c(=O)[nH]c2=O)[C@H](O)[C@@H]1O [DOXIFLURIDINE]
Result string: 88.33

Query string: Note down LYMPHOCYTE recorded for Clc1ccccc1CN1CCc2sccc2C1 [TICLOPIDINE]
Result string: 87.17

###

Reported ALANINE AMINOTRANSFERASE by item:
Species: Rattus norvegicus
Test: DrugMatrix - Regimen: Daily Repeat
Type: toxicity, organism-based, Sprague-Dawley
Design: regimen Daily Repeat, gender Male, age 6-8 weeks
Settings: in vivo, po, 10 mg/kg, 72 h, tissue Plasma, route oral GAVAGE, dose level Low, time 3 day, vehicle .5 % CMC
Note to self: number, then unit, no commentary.

Here is how some molecules turned out for ALANINE AMINOTRANSFERASE.
Fc1ccc(C(c2ccc(F)cc2)N2CCN(C/C=C/c3ccccc3)CC2)cc1 :: 42.67 u/L
O=C1C(CC[S+]([O-])c2ccccc2)C(=O)N(c2ccccc2)N1c1ccccc1 (centres undefined) :: 52.33 u/L
CNCCC(Oc1ccc(C(F)(F)F)cc1)c1ccccc1 (centres undefined) :: 32.67 u/L

// switching to the query molecule
Query string: Kindly indicate its recorded ALANINE AMINOTRANSFERASE. Item: `O=C1CN=C(c2ccccc2Cl)c2cc([N+](=O)[O-])ccc2N1`
Result string: 58.33 u/L
